# System: HOP-62
# EXPERIMENTAL DETAILS: NCI tumour cell line growth inhibition, 48 h
The source made the active and inactive calls. No stated cut-off is given here; in the data, active = GI50 up to about 1.1 µM and inactive = higher.
ENDPOINT NAME: GI50

compound="O=C(c1nc2ccc(Cl)cc2nc1O)C(O)c1ccc2c(c1)OCO2 (stereo not drawn)" endpoint_name=GI50 reported_value="> 100 µM (inactive)"
compound=CN(/N=C/c1ccccc1O)c1ccc2ccccc2n1 endpoint_name=GI50 reported_value="16.4 µM (inactive)"
compound="O=c1[nH]c(=O)n(C2OC(COP(=O)(O)OP(=O)(O)OC3OC(CO)C(O)C(O)C3O)C(O)C2O)cc1F (stereo not drawn)" endpoint_name=GI50 reported_value="0.302 µM (active)"

====

GI50 values, listed per item
# Tested on: HL-60
# EXPERIMENTAL DETAILS: NCI tumour cell line growth inhibition, 48 h
Active and inactive are the calls of the source. No stated cut-off is given here; in the data, active = GI50 up to about 1.1 µM and inactive = higher.
ENDPOINT NAME: GI50

molecule=Cc1ccc2nc(NC(=O)C(=O)C3C(=O)NC(=S)NC3=O)sc2c1 tgt=HL-60 reported_value="> 100 µM (inactive)"
molecule=N#Cc1cnn2c1n[n+]([O-])c1ccc(Cl)cc12 tgt=HL-60 reported_value="2.86 µM (inactive)"
molecule=COC(=O)c1c(C(=O)OC)c(C(c2ccccc2)c2ccccc2)n(-c2ccccc2)c1Cl tgt=HL-60 reported_value="4.06 µM (inactive)"
molecule="CCOC(=O)C(NC(=O)c1ccccc1)(Nc1ccc(S(=O)(=O)Nc2ccc(OC)nn2)cc1)C(F)(F)F (stereo unspecified)" tgt=HL-60 reported_value="> 100 µM (inactive)"
molecule="Cc1c(N)nc([C@H](CC(N)=O)NC[C@H](N)C(N)=O)nc1C(=O)N[C@H](C(=O)N[C@H](C)[C@@H](O)CC(=O)N[C@H](C(=O)NC(O[C@@H]1O[C@@H](C)[C@@H](N)[C@@H](O)[C@H]1O)C(O)c1nc(-c2nc(C(=O)NCCC[S+](C)C)cs2)cs1)[C@@H](C)O)[C@H](O[C@@H]1O[C@@H](CO)[C@@H](O)[C@H](O)[C@@H]1O[C@H]1O[C@H](CO)[C@@H](O)[C@H](OC(N)=O)[C@@H]1O)c1c[nH]cn1 (stereo partly specified)" tgt=HL-60 reported_value="> 100 µM (inactive)"
molecule=COC(=O)c1cc(-c2ccc3ccccc3c2)nc(O)c1C#N tgt=HL-60 reported_value="20.3 µM (inactive)"

====

# Test system: NCI-H226
# EXPERIMENTAL DETAILS: NCI tumour cell line growth inhibition, 48 h
Active and inactive are the calls of the source. No stated cut-off is given here; in the data, active = GI50 up to about 1.1 µM and inactive = higher.
ENDPOINT NAME: GI50

compound="CC12O[C@]3([C@H](C(=O)N4CCOC43C)[C@H]1Cl)[C@H]1O[C@H]12 (stereo partly specified)" endpoint_name=GI50 reported_value="> 100 µM (inactive)"
compound=O=c1[nH]c(Nc2nc3ccccc3[nH]2)nc2c1CCC2 endpoint_name=GI50 reported_value="63.1 µM (inactive)"
compound="C/C(=N\\NC(=S)NC(CCC(=O)O)C(=O)O)c1ccccn1 (stereo unspecified)" endpoint_name=GI50 reported_value="> 100 µM (inactive)"
compound="O=C1C2=C(c3ccccc31)C(c1ccccc1)N1C(=O)CSC1=N2 (stereo unspecified)" endpoint_name=GI50 reported_value="38.5 µM (inactive)"
compound="COc1cc(/C=C2\\NC(=O)C3Cc4c(OC)c(C)c(OC)c(OC)c4C2N3C)c(OC)c(C)c1OC (stereo unspecified)" endpoint_name=GI50 reported_value="> 100 µM (inactive)"
compound="CCNC1CC(n2cc(C)c(=O)[nH]c2=O)OC1CO (stereo unspecified)" endpoint_name=GI50 reported_value="> 100 µM (inactive)"
compound=C[C@@H](c1ccccc1)N(CC#N)[C@H]1CCC[C@]1(O)/C=C/c1ccc2c(c1)OCO2 endpoint_name=GI50 reported_value="> 25 µM (inactive)"
compound=CCN(CC)CCSc1c2ccccc2nc2c(OC)ccc(OC)c12 endpoint_name=GI50 reported_value="29.5 µM (inactive)"
compound=Cc1ccc(C(=O)/C=C2/Nc3ccc([N+](=O)[O-])cc3N/C2=C/C(=O)c2ccc(C)cc2)cc1 endpoint_name=GI50 reported_value="> 100 µM (inactive)"
compound="COc1ccc(C2C=C(c3ccc4c(c3)OCO4)Oc3c2c(=O)oc2ccccc32)cc1OC (stereo unspecified)" endpoint_name=GI50 reported_value="0.258 µM (active)"
compound="CCOC(=O)C1C2CCC(C2)C1(CCl)C(=O)OCC (stereo unspecified)" endpoint_name=GI50 reported_value="> 100 µM (inactive)"
